Overview of reported α1A receptor I.A. across a group of compounds:
Molecular target: human α1A-adrenergic receptor (Homo sapiens)
Sequence (P35348 1-466): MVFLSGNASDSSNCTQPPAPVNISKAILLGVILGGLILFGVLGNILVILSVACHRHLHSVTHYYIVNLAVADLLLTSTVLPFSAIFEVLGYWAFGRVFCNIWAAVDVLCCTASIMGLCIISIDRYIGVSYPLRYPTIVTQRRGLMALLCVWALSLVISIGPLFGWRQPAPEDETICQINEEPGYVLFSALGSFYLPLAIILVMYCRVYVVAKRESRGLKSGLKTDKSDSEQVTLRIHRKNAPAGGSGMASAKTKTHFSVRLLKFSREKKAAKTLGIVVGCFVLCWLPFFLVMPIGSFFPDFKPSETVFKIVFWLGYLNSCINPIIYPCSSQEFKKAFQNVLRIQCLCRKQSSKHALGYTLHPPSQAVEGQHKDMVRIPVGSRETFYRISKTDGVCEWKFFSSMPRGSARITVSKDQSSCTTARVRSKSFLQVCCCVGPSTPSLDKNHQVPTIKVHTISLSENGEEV
Assay: Test Case 4-A: human α1A-adrenergic receptor agonist activity (HEK293, Ca flux, Fura-2)
Format: cell-based
Parameters: expressed in transfected cells; host or cells: HEK293 cells, pcDNA3.1
Settings: Test Case 4-A; maximum response of norepinephrine = 100%; Table 4
Express the result in % but write the number alone.

Solved entries (count: 2):
INSERT INTO assay_data (compound, tgt, recorded_endpoint, experimental_value) VALUES
  ('O=S(=O)(Nc1cccc([C@@H](O)CNCCOc2ccc3c(C4CC4)n[nH]c3c2)c1)C1CC1', 'human α1A-adrenergic receptor (Homo sapiens)', 'α1A receptor I.A.', 1),
  ('COc1n[nH]c2cc(OCCNC[C@H](O)c3cccc(NS(=O)(=O)C4CC4)c3)ccc12', 'human α1A-adrenergic receptor (Homo sapiens)', 'α1A receptor I.A.', 28);

Pending compound:
Query: Would you mind telling me what α1A receptor I.A. value was observed for COc1cccc(S(=O)(=O)Nc2cccc([C@@H](O)CNCCOc3ccc4c(OC)n[nH]c4c3)c2)c1 [ex15] ?
Result: 0

* * *

molecular target: human β2-adrenergic receptor (Homo sapiens); construct: expressed in transfected cells; host or cells: CHO (Chinese hamster ovary) cells, pcDNA3; test: Test Case 3-B: human β2-adrenergic receptor agonist activity; type: cell-based; settings: read-out: β2 receptor I.A.
Sequence (P07550 whole entry): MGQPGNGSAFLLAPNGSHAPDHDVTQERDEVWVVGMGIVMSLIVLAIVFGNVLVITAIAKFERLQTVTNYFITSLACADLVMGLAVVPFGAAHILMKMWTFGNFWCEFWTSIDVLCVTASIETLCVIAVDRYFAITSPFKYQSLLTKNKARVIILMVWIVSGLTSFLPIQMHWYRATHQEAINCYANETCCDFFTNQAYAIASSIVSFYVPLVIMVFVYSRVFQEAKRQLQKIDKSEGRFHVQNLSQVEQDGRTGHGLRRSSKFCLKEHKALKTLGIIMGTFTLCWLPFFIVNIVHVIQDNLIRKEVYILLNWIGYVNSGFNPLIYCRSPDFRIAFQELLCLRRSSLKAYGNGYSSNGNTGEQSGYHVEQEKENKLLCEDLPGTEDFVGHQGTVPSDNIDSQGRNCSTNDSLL
RECORDED_ENDPOINT: Emax (%)
Express the result in % but write the number alone.

Solved entries (count: 5):
INSERT INTO assay_data (molecule, unit_name, experimental_value) VALUES
  ('COc1n[nH]c2cc(OCCNC[C@H](O)c3cccc(NS(=O)(=O)c4cccc(Cl)c4)c3)ccc12 [ex13]', '%', -4),
  ('COc1n[nH]c2cc(OCCNC[C@H](O)c3cccc(NS(=O)(=O)c4cccs4)c3)ccc12 [ex2]', '%', 3),
  ('COc1n[nH]c2cc(OCCNC[C@H](O)c3cccc(NS(=O)(=O)c4ccsc4)c3)ccc12 [ex11]', '%', 3),
  ('O=S(=O)(Nc1cccc([C@@H](O)CNCCOc2ccc3c(C4CC4)n[nH]c3c2)c1)C1CC1 [ex212]', '%', 15),
  ('Cc1n[nH]c2cc(OCCNC[C@H](O)c3cccc(NS(=O)(=O)c4cc(N)ccc4F)c3)ccc12 [ex61]', '%', -3);

Query: Would you mind telling me what Emax value was observed for Cc1n[nH]c2cc(OCCNC[C@H](O)c3cccc(NS(=O)(=O)c4cnn(C)c4)c3)ccc12 [ex79] ?
Result: 7

Query: Would you mind telling me what Emax value was observed for Nc1cccc(S(=O)(=O)Nc2cccc([C@@H](O)CNCCOc3ccc4c(OC(F)F)n[nH]c4c3)c2)c1 [ex104] ?
Result: 4

Query: Would you mind telling me what Emax value was observed for CCc1n[nH]c2cc(OCCNC[C@H](O)c3cccc(NS(=O)(=O)c4cn[nH]c4)c3)ccc12 [ex149] ?
Result: 0

Query: Would you mind telling me what Emax value was observed for Cc1n[nH]c2cc(OCCNC[C@H](O)c3cccc(NS(=O)(=O)c4cn[nH]c4)c3)ccc12 [ex82] ?
Result: 2

Query: Would you mind telling me what Emax value was observed for COc1n[nH]c2cc(OCCNC[C@H](O)c3cccc(NS(=O)(=O)c4cc(N)ccc4F)c3)ccc12 [ex6] ?
Result: 7

Where do the numbers come from? From patent US20120225909A1.
